System: IL-1β release from PBMCs
Assay: IL-1β release from PBMCs measured by ELISA
Assay type: cell-based
Details: 20 μM, LPS or PHA stimulated human PBMCs
Protocol: Mononuclear cells are obtained from the blood of healthy volunteers via centrifugation and cultivated on tissue culture dishes with the test compound at various concentrations Schnyder, Bollinger et al. (1990). Inhibition of interleukin-1 release by IX 207-887. Agents Actions. 30: 350-362. Fresh human mononuclear cells were isolated on Ficoll-Paque gradient and washed several times. […] IFNγ, IL 1β, IL 6, and IL-17 are determined using commercially available ELISA kits.
Each entry below carries its recorded IL-1β release from PBMCs (% control).
Reply with just the number (in % control).

// known answers, use as guide
>  <compound>
COc1cc(O)c2c(c1OC)/C=C/C[C@H](O)[C@H](O)C(=O)/C=C\C[C@H](C)OC2=O [RAA, radicicol analog A, reference compound]

>  <u>
% control

>  <IL-1β release from PBMCs (% control)>
4

$$$$
>  <compound>
CC(=O)Oc1ccc2c(=O)c(Oc3ccccc3)coc2c1

>  <u>
% control

>  <IL-1β release from PBMCs (% control)>
89

$$$$
>  <compound>
COc1ccc(Oc2coc3cc(O)ccc3c2=O)cc1

>  <u>
% control

>  <IL-1β release from PBMCs (% control)>
104

$$$$

Please look at the following compound next.
Request: Tell us which IL-1β release from PBMCs (% control) value is on record for COC(=O)c1ccc(Oc2coc3cc(O)ccc3c2=O)cc1
Response: 45

* * *

target: IL-6 mRNA; assay: mRNA stability reporter gene (luciferase) assay, IL-6; assay type: cell-based; conditions: luciferase reporter, 24 h; unit printed truncated
measurementName: pIC50
Please report pIC50 as the negative decimal logarithm of the molar concentration, giving only the number.

Request: Tell us which pIC50 value is on record for COc1cc(O)c2c(c1OC)/C=C/C[C@H](O)[C@H](O)C(=O)/C=C\C[C@H](C)OC2=O [RAA, radicicol analog A, reference compound]
Response: 6.89

* * *

tested on: IL-1β release from PBMCs; experiment: IL-1β release from PBMCs measured by ELISA; assay type: cell-based; settings: 10 μM, LPS or PHA stimulated human PBMCs
measurementName: IL-1β release from PBMCs (% control)
Reply with just the number (in % control).

>  <molecule>
COc1cc(O)c2c(c1OC)/C=C/C[C@H](O)[C@H](O)C(=O)/C=C\C[C@H](C)OC2=O [RAA, radicicol analog A, reference compound]

>  <IL-1β release from PBMCs (% control)>
4

$$$$

Request: Tell us which IL-1β release from PBMCs (% control) value is on record for COC(=O)c1ccc(Oc2coc3cc(O)ccc3c2=O)cc1
Response: 58

Request: Tell us which IL-1β release from PBMCs (% control) value is on record for CC(=O)Oc1ccc2c(=O)c(Oc3ccccc3)coc2c1
Response: 109

Request: Tell us which IL-1β release from PBMCs (% control) value is on record for COc1ccc(Oc2coc3cc(O)ccc3c2=O)cc1
Response: 104

* * *

system: IL-6 release from PBMCs; experiment: IL-6 release from PBMCs measured by ELISA; type: cell-based; conditions: 10 μM, LPS or PHA stimulated human PBMCs
measurementName: IL-6 release from PBMCs (% control)

// known answers, use as guide
>  <compound>
COc1cc(O)c2c(c1OC)/C=C/C[C@H](O)[C@H](O)C(=O)/C=C\C[C@H](C)OC2=O [RAA, radicicol analog A, reference compound]

>  <systemName>
IL-6 release from PBMCs

>  <result>
11 % control

$$$$
>  <compound>
CC(=O)Oc1ccc2c(=O)c(Oc3ccccc3)coc2c1

>  <systemName>
IL-6 release from PBMCs

>  <result>
89 % control

$$$$
>  <compound>
COC(=O)c1ccc(Oc2coc3cc(O)ccc3c2=O)cc1

>  <systemName>
IL-6 release from PBMCs

>  <result>
176 % control

$$$$

Please look at the following compound next.
Request: Tell us which IL-6 release from PBMCs (% control) value is on record for COc1ccc(Oc2coc3cc(O)ccc3c2=O)cc1
Response: 83 % control

The reported numbers originate from patent US11576892B2.
